Below, each of the molecules is paired with its reported MIC value.
Tested on: Clostridium perfringens
Assay: microbe, parasite or virus in culture
Assay type: cell-based
Conditions: Clostridium perfringens, read-out: MIC value against Clostridium perfringens, strain A3-2 (A-type)
// return numeric value only (unit: µg/mL, not printed)

Example cases with answers are listed next.
CCC[C@@H]1C[C@@H](C(=O)N[C@@H]([C@H]2O[C@H](SC)[C@H](O)[C@@H](O)[C@H]2O)[C@@H](C)O)N(C)C1: 0.5
CC[C@H]1OC(=O)C[C@@H](O)[C@H](C)[C@@H](O[C@@H]2O[C@H](C)[C@@H](O)[C@H](N(C)C)[C@H]2O)[C@@H](CCN2C[C@H](C)C[C@H](C)C2)C[C@@H](C)C(=O)/C=C/C(C)=C/[C@@H]1CO[C@@H]1O[C@H](C)[C@@H](O)[C@@H](OC)[C@H]1OC: 2
C=C[C@]1(C)C[C@@H](OC(=O)CSCCN(CC)CC)[C@]2(C)[C@H](C)CC[C@]3(CCC(=O)[C@H]32)[C@@H](C)[C@@H]1O: 0.5
O=C(Nc1ccc(C(F)(F)F)c(Cl)c1Cl)c1cc(Cl)ccc1O: 0.25

Turning now to a further record.
Q: Recorded MIC for C[C@H]1c2cccc(O)c2C(=O)C2=C(O)[C@]3(O)C(=O)C(C(N)=O)=C(O)[C@@H](N(C)C)[C@@H]3[C@@H](O)[C@@H]21 , please?
A: 8

====

Tested on: Clostridium perfringens
Assay: microbe, parasite or virus in culture
Assay type: cell-based
Settings: Clostridium perfringens, read-out: MIC value against Clostridium perfringens, strain H15-3 (H-type)
measuredParameter: MIC (µg/mL)
// return numeric value only (unit: µg/mL, not printed)

Example cases with answers are listed next.
CC[C@H]1OC(=O)C[C@@H](O)[C@H](C)[C@@H](O[C@@H]2O[C@H](C)[C@@H](O)[C@H](N(C)C)[C@H]2O)[C@@H](CCN2C[C@H](C)C[C@H](C)C2)C[C@@H](C)C(=O)/C=C/C(C)=C/[C@@H]1CO[C@@H]1O[C@H](C)[C@@H](O)[C@@H](OC)[C@H]1OC [TMS, Tilmicosin]: 4
O=C(Nc1ccc(C(F)(F)F)c(Cl)c1Cl)c1cc(Cl)ccc1O [BAB159]: 0.25
C=C[C@]1(C)C[C@@H](OC(=O)CSCCN(CC)CC)[C@]2(C)[C@H](C)CC[C@]3(CCC(=O)[C@H]32)[C@@H](C)[C@@H]1O [TIA, Tiamulin]: 4
C[C@H]1c2cccc(O)c2C(=O)C2=C(O)[C@]3(O)C(=O)C(C(N)=O)=C(O)[C@@H](N(C)C)[C@@H]3[C@@H](O)[C@@H]21 [DOX, Doxycycline]: 8

Turning now to a further record.
Q: Recorded MIC for CCC[C@@H]1C[C@@H](C(=O)N[C@@H]([C@H]2O[C@H](SC)[C@H](O)[C@@H](O)[C@H]2O)[C@@H](C)O)N(C)C1 [LIN, Lincomycin] , please?
A: 4

====

System: Clostridium perfringens
Test: microbe, parasite or virus in culture
Format: cell-based
Settings: Clostridium perfringens, read-out: MIC value against Clostridium perfringens, strain F6-2 (F-type)
measuredParameter: MIC (µg/mL)
// return numeric value only (unit: µg/mL, not printed)

Example cases with answers are listed next.
CCC[C@@H]1C[C@@H](C(=O)N[C@@H]([C@H]2O[C@H](SC)[C@H](O)[C@@H](O)[C@H]2O)[C@@H](C)O)N(C)C1: 32
C=C[C@]1(C)C[C@@H](OC(=O)CSCCN(CC)CC)[C@]2(C)[C@H](C)CC[C@]3(CCC(=O)[C@H]32)[C@@H](C)[C@@H]1O: 0.5
CC[C@H]1OC(=O)C[C@@H](O)[C@H](C)[C@@H](O[C@@H]2O[C@H](C)[C@@H](O)[C@H](N(C)C)[C@H]2O)[C@@H](CCN2C[C@H](C)C[C@H](C)C2)C[C@@H](C)C(=O)/C=C/C(C)=C/[C@@H]1CO[C@@H]1O[C@H](C)[C@@H](O)[C@@H](OC)[C@H]1OC: 128
C[C@H]1c2cccc(O)c2C(=O)C2=C(O)[C@]3(O)C(=O)C(C(N)=O)=C(O)[C@@H](N(C)C)[C@@H]3[C@@H](O)[C@@H]21: 16

Q: Recorded MIC for O=C(Nc1ccc(C(F)(F)F)c(Cl)c1Cl)c1cc(Cl)ccc1O , please?
A: 0.5
